Give interfacial tension for every item shown.
RUN_CONDITIONS: 283.15 K; 101 kPa; Liquid; Drop weight
Your answer is read as mN/m, so omit the unit and give the number.

Given the entry CCCCOC(C)=O [butyl ethanoate] + O , report its measured interfacial tension.
15.3

What do you have for Cc1ccccc1 [toluene] + O ?
36.1

What do you have for CCOC(C)=O [ethyl acetate] + O ?
7.61

What do you have for O=C1CCCCC1 [cyclohexanone] + O ?
4.78

---

RUN_CONDITIONS: 293.15 K; 101 kPa; Liquid; Drop weight
ENDPOINT: interfacial tension (mN/m)
Your answer is read as mN/m, so omit the unit and give the number.

Given the entry O=C1CCCCC1 [cyclohexanone] + O , report its measured interfacial tension.
4.87

What do you have for CCCCOC(C)=O [butyl ethanoate] + O ?
15.3

What do you have for CCOCC [diethyl ether] + O ?
9.03

What do you have for CC1CCCCC1 [methylcyclohexane] + O ?
51.4

What do you have for Cc1ccccc1 [toluene] + O ?
36.3

What do you have for CCOC(C)=O [ethyl acetate] + O ?
7.29

Source: the NIST ThermoML archive (doi:10.1021/acs.jced.6b00703)
